tested on: PC-3 prostate; experiment: NCI tumour cell line growth inhibition, 48 h
# TGI per entry
Number in µM, nothing else.

Answered examples (2):
- COMPOUND: "C/C(C=O)=N\\Nc1cc(C)c2ccccc2n1"
  UNIT: "µM"
  REPORTED_RESULT: 33
- COMPOUND: "COC(=O)Nc1ccc2ccc3c(NC(=O)OC)ccc4ccc1c2c43 (tested in a mixture with another compound)"
  UNIT: "µM"
  REPORTED_RESULT: 26

GET /value?item= CCOC(=O)c1cc2c(cc1Cl)SC(N(c1ccc(F)cc1)S(=O)(=O)c1ccc(OC)cc1)=NS2(=O)=O &field=TGI returns 25.5
